Overview of recorded melting point for various molecules
Reported Property: melting point

• COCCN(CCOC)c1ccc(P(=O)(C(=O)c2c(C)cc(C)cc2C)C(=O)c2c(C)cc(C)cc2C)cc1 = 103 to 106 °C
• CC(C)NC(=O)c1c(NC(=O)c2cc(C(F)(F)F)nn2-c2ncccc2Cl)ccc2ncccc12 = 182 to 183 °C
• Cc1ccc(-c2c(N=[N+]=[N-])ncnc2OCCO)cc1 = 83.5 to 85 °C
• Nc1ncc(Cc2ccc3ccccc3c2)c(N)n1 = 231 to 233 °C
• COc1ccc(-c2c(Cl)c(CN3C(=O)CCC3=O)nc3sc4c(c23)CC(C)(C)C(O)C4)cc1 (stereo not drawn) = 227 to 229 °C
• COc1cccc([C@H]2O[C@H](CC(=O)Nc3ccc(CC(=O)O)cc3)C(=O)N(CC(C)(C)CO)c3ccc(Cl)cc32)c1OC = 142 to 144 °C
• C#CCN(Cc1ccc2nc(Cl)c(N)cc2c1)c1ccc(C(=O)N[C@@H](CCC(=O)O)C(=O)O)c(F)c1 = 107 to 110 °C
• CC(C)CCSCC[C@H](O)[C@@H](N)CC(C)C = 64 to 65 °C

====

Reported Property: melting point

- COCOc1cc(C=O)c2nc3cccc(OCOC)c3nc2c1: 148 to 150 °C
- Brc1cccc(-c2ccnn2-c2ccc3c(c2)OCO3)c1: 195 to 197 °C
- CNC(=O)C=C1CSc2c(C(=O)OC(C)C)c(C)cn21: 173 to 175 °C
- COc1ccc(C(=O)Nc2c(Cl)cncc2Cl)c2c3cc(Cl)ccc3n(Cc3ccccc3)c12: 210 to 213 °C
- O=C(Nc1ccc(C(=O)O)cc1)OCc1cn(-c2cc3cc(C(=O)O)c(=O)[nH]c3cc2[N+](=O)[O-])cn1: > 300 °C
- COc1ccc2c(c1)S(=O)(=O)C(C(=O)Nc1ccc(Cl)c(Cl)c1)C(=O)N2C (configuration not stated): 230 to 233 °C
- COc1ccc(-c2nc(CCOc3ccc(CC4OC(=O)NC4=O)cc3)c(C)o2)cc1 (configuration not stated): 141 to 143 °C
- N#Cc1ccc(-c2ccc(-c3ccc(C#N)nc3)o2)cc1: 276 to 277 °C
- Fc1cc(F)c(-c2ccccc2)c(F)c1F: 86 to 88 °C
- CCCCCCCC(=O)Nc1ccn(C2OC(CO)C(O)C2O)c(=O)n1 (configuration not stated): 151 to 153 °C
- COc1ccc(-c2cnc(C(N)=O)nc2)cc1OC1CCCC1: 235 to 238 °C
- O=C(O)C1=Cc2cc(-c3ccccc3)ccc2CC1: 208 to 209 °C

====

Overview of recorded melting point for various compounds
Reported Property: melting point

- O=C(Cc1cc(F)ccc1F)N1CCNc2ncc(I)cc21: 152 to 153 °C
- Clc1cccc(/C=C/[C@H]2CCCN2c2ncnc3[nH]cnc23)c1: 194 to 196 °C
- Cc1c(Oc2nccs2)ccc(C(=O)O)c1Cl: 150 to 152 °C
- O=c1cc(-c2cc(OCc3ccccc3)cc(OCc3ccccc3)c2)oc2cc(OCC(O)CN3CCN(c4ccccc4)CC3)ccc12 (centres undefined): 168 to 170 °C
- O=C(O)Cc1ccc2c(c1)C(=O)CC2: 133 to 135 °C
- O=C(Nc1ccccc1)OCCc1ccc2c(c1)C(=O)c1ccccc1CO2: 98 to 99 °C
- CCn1c2ccc(C=O)cc2c2c3ccccc3ccc21: 143 to 144 °C
- CC(Oc1cc(-c2nn(C)c(C(F)(F)F)c2Cl)c(F)cc1Cl)C(=O)O (centres undefined): 150 to 151 °C
- CNc1nc2ccc(-c3nc4cc(C)ccn4c3C)cc2s1: 191 to 194 °C
- CCC[C@H]1CC[C@H](c2ncc(C#N)cn2)CC1: 74 °C
- CC(c1oc2ccccc2c(=O)c1-c1cccc(F)c1)n1nc(-c2ccc(O)c(F)c2)c2c(N)ncnc21 (centres undefined): 244 to 247 °C
- Oc1ccc2c(c1)CCCC(c1ccccc1)=C2c1ccc(OCCI)cc1: 229 to 231 °C
- CC(=N)NC=Cc1ccc([N+](=O)[O-])cc1: 142 to 143 °C
- Clc1ccc(Oc2cncc3sc(-c4ccco4)cc23)cc1: 75 to 77 °C
- N#Cc1cc(S(=O)(=O)c2ccc([N+](=O)[O-])cc2)cc(Br)n1: 158 to 160 °C
- Cc1ccc(-c2ccc(C(=O)Nc3ccc4cc(CN5CCCC5)cnc4c3C)c(F)c2)cc1: 180 to 182 °C
- COC(=O)C(C(=O)OC)c1ccccc1COc1ccccc1C: 99 to 103 °C
- CC(C)(C)c1ccc(-n2cnnc2C(F)(F)F)cc1: 134 °C
- COc1ccc2c(c1)ncc1c(=O)n(-c3ccccc3)oc12: 170 °C
- O=C(CCCCCBr)c1ccccc1: 35 to 36 °C
- CCCn1c(=O)c(-c2ccccc2)c2n(c1=O)CCC(Sc1ccccc1)S2 (centres undefined): 126 to 127 °C
- O=C(O)c1cccc(-c2nc(-c3cc(Cl)sc3Cl)cs2)c1: 241 to 242 °C
- O=C1CCNc2cc(Cl)c(F)cc21: 192 to 194 °C
- CCCCCCCCCCCc1nccn1-c1nc(-c2ccc(Cl)cc2)c(CCCOc2ccccc2OC)o1: 53 to 54 °C
- COc1ccc(-c2nc(Sc3ccc(C(F)(F)F)cc3)[nH]c2-c2ccc(OC)cc2)cc1: 179 to 181 °C
- CCOC(=O)c1ccn2nccc2n1: 114 to 115 °C
- CC(C)(CO)c1ccc(C(=O)Nc2cn3cc(-c4cn[nH]c4)ccc3n2)cc1: 293 to 296 °C
- CCCCCN=C1SC(=CC(=O)O)C(=O)N1CCCCC: 85 to 88 °C
- CCc1cc(=O)c2nc(OC(C)C)c(Cl)cc2[nH]1: 231 to 235 °C
- O=S(=O)(Nc1ccc(OCc2ccc3ccccc3n2)cc1)c1cccc(C(F)(F)F)c1: 81 to 83 °C
- Cc1cccc(-c2[nH]c(C(C)C)nc2-c2cccc(-c3ccc4c(c3)CCCS4)c2)n1: 115 to 117 °C
- Nc1c(-c2ccc(Cl)cc2)nc2ccccc2c1C(=O)O: 243 to 244 °C
- COc1cc(OCC(=O)N[C@H]2CCN(Cc3ccccc3)C2)ccc1C(=NN)C(=O)c1ccc(O)c(N)c1: 139 to 141 °C
- COc1ccc(Oc2cc3c(cc2Cl)C=C(C(=O)O)C(C(F)(F)F)O3)cc1 (centres undefined): 213 to 214 °C
